ASSAY_EXPLANATION: Microsomal incubations of 3MI: production of 3MI metabolites by pig liver microsomes (HPLC)
Format: in vitro ADME
RUN_CONDITIONS: pig liver microsomes
Method: Preparation of microsomes. Microsomal incubations. […] C. (production of metabolites was determined to be linear over a range of 10 to 40 min). Incubation volumes were 0.5 ml. […] A 50 μl aliquot of the clear supernatant was analyzed by high-performance liquid chromatography (HPLC). Analytical chromatography. […] Absorbance was monitored at 250 nm; fluorescence was monitored at excitation and emission wavelengths of 286 and 350 nm, respectively. […]
Some compounds, each annotated with its measured Percentage of all 3MI metabolites produced (average).
METRIC_NAME: Percentage of all 3MI metabolites produced (average) (%)

| COMPOUND | VALUE |
| --- | --- |
| CC1(O)C=Nc2ccccc21 (stereo not drawn) [UV-1, 3-hydroxy-3-methylindolenine] | 45.1 |
| CC1(O)C(=O)Nc2ccccc21 (stereo not drawn) [3-hydroxy-3-methyloxindole] | 18.5 |
| Cc1c[nH]c2ccc(O)cc12 | 0.3 |
| NCC(=O)c1ccccc1 | 0.5 |
| CC1C(=O)Nc2ccccc21 (stereo not drawn) | 27.9 |
| Cc1c[nH]c2cc(O)ccc12 | 4.9 |

----------
Some compounds, each annotated with its measured Minimum rate of production.
ASSAY_EXPLANATION: Microsomal incubations of 3MI: production of 3MI metabolites by pig liver microsomes (HPLC)
Assay type: in vitro ADME
RUN_CONDITIONS: lowest of 30 pig liver microsome samples

| COMPOUND | UNITS_OF_MEASURE | Minimum rate of production |
| --- | --- | --- |
| CC1C(=O)Nc2ccccc21 (stereo not drawn) | pmol/mg prot./min | 234.4 |
| Cc1c[nH]c2ccc(O)cc12 | pmol/mg prot./min | 0.7 |
| OCc1c[nH]c2ccccc12 | pmol/mg prot./min | 12.1 |
| NCC(=O)c1ccccc1 | pmol/mg prot./min | 3.4 |
| CC1(O)C=Nc2ccccc21 (stereo not drawn) [UV-1, 3-hydroxy-3-methylindolenine] | pmol/mg prot./min | 180.5 |
| CC1(O)C(=O)Nc2ccccc21 (stereo not drawn) [3-hydroxy-3-methyloxindole] | pmol/mg prot./min | 118.9 |

----------
System: aldehyde oxidase
ASSAY_EXPLANATION: in vitro
RUN_CONDITIONS: male, pig, porcine liver cytosol, pH 7.4, probe HMI (conversion to HMOI)
METRIC_NAME: activity at 10 min, 50 µM (%)

| MOLECULE | METRIC_NAME | UNITS_OF_MEASURE | VALUE |
| --- | --- | --- | --- |
| CCN(CC)CCCC(C)Nc1c2ccc(Cl)cc2nc2ccc(OC)cc12 (stereo not shown) [quinacrine] | activity at 10 min, 50 µM | % | 75.5 |

----------
Some compounds, each annotated with its measured Maximum rate of production.
ASSAY_EXPLANATION: Microsomal incubations of 3MI: production of 3MI metabolites by pig liver microsomes (HPLC)
Type: in vitro ADME
RUN_CONDITIONS: highest of 30 pig liver microsome samples

| COMPOUND | UNITS_OF_MEASURE | Maximum rate of production |
| --- | --- | --- |
| NCC(=O)c1ccccc1 | pmol/mg prot./min | 12.7 |
| Cc1c[nH]c2ccc(O)cc12 | pmol/mg prot./min | 27.3 |
| CC1(O)C(=O)Nc2ccccc21 (stereo not shown) [3-hydroxy-3-methyloxindole] | pmol/mg prot./min | 516.5 |
| CC1(O)C=Nc2ccccc21 (stereo not shown) [UV-1, 3-hydroxy-3-methylindolenine] | pmol/mg prot./min | 1556.3 |
| CC1C(=O)Nc2ccccc21 (stereo not shown) | pmol/mg prot./min | 700.8 |
| OCc1c[nH]c2ccccc12 | pmol/mg prot./min | 85.7 |
| Cc1c[nH]c2cc(O)ccc12 | pmol/mg prot./min | 213.7 |
